The measured values listed here are drawn from ChEMBL document CHEMBL5291721.

Below is a list of entries, each paired with its recorded AC50 value.
Target: Receptor tyrosine-protein kinase erbB-2 (Homo sapiens, UniProt P04626); note: assay procedure not described here
Sequence (P04626 whole entry): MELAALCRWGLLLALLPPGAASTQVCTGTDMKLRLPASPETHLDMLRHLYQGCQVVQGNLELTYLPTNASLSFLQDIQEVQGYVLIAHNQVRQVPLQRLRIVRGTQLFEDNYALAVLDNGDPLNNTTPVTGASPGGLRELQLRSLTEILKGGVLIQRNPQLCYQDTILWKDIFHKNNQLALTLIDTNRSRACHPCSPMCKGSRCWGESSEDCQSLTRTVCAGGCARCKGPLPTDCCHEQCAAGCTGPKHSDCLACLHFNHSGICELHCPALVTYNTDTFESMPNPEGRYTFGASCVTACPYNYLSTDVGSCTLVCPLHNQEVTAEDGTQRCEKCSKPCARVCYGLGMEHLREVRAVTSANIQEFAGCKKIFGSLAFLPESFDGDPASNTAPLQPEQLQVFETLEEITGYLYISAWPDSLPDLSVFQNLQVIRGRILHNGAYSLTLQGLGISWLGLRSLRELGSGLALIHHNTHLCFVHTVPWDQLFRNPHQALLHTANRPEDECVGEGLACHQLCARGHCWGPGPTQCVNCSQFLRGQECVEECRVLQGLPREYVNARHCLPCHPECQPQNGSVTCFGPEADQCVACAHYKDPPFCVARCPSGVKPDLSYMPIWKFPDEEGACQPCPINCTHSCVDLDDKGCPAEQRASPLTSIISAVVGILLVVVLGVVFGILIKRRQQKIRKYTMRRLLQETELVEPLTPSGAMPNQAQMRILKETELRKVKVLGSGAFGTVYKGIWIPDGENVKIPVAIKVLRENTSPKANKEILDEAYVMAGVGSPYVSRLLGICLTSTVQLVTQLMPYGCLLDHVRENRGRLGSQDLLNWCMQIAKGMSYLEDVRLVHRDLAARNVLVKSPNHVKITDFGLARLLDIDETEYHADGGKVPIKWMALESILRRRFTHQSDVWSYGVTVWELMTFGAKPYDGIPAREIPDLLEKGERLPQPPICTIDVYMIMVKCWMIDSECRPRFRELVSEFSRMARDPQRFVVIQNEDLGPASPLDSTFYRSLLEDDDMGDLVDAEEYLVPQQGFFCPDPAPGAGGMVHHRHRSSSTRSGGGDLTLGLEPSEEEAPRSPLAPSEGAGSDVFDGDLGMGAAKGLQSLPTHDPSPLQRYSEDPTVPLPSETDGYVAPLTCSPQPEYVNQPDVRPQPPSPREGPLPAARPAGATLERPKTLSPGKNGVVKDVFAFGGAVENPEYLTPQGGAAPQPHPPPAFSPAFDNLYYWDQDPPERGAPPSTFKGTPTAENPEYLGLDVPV
Format: functional
Value Kind: AC50

>>> result("CC(C)Cc1ccc(CC(=O)O)cc1 [IBUFENAC]")
"> 30 µM"
>>> result("CC(C)NNC(=O)c1ccncc1 [IPRONIAZID]")
"> 30 µM"
>>> result("CO/N=C(\\C(=O)N[C@@H]1C(=O)N2C(C(=O)[O-])=C(C[N+]3(C)CCCC3)CS[C@H]12)c1csc(N)n1")
"> 300 µM"
>>> result("COC(=O)[C@@H]1CC2=CC(=O)CC[C@]2(C)[C@@]23O[C@@H]2C[C@@]2(C)[C@@H](CC[C@@]24CCC(=O)O4)[C@H]13 [EPLERENONE]")
"> 30 µM"
